These data points were gathered from the supplement of paper PMC10724198.

System: Saccharomyces cerevisiae;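 note: PSI is a weighted mean of sequencing reads over stability bins, variants kept only with over 10 reads, mCherry proximal and sfGFP distal, peptide attached via GGGS linker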
Experiment notes: protein stability index of tFT-peptide fusion (C-terminal peptide) (PSI (0-1 scale)); higher = more stable (slower turnover)
Test context: genetic background: doa10 deletion; temperature: 30 C
Readout type: protein stability index
Numbers only.

Example entries and their recorded answers appear below.
GRGRGGRWGRLC	0.201
FVVFLLFFMLYH	0.311
QRAVGLANFTIK	0.646

Can you give me protein stability index for all of these, one by one?
1. CCSGWSVRLLCV
2. WAFVVCGAVFFW
3. GKVSSFVLFHIS
4. SSAFFFLLFSLA
5. LSRLWVVGWVVA
6. CGCLPYIGTKLC

Resp:
1. 0.243
2. 0.289
3. 0.202
4. 0.244
5. 0.191
6. 0.087

Can you give me protein stability index for all of these, one by one?
1. DECQLCNRDWRG
2. GPCRPWIVVYAG
3. LLCSPPPLTVPA
4. LWYVQILNIVLN
5. RLPVMFWFVCSF

Resp:
1. 0.644
2. 0.295
3. 0.275
4. 0.233
5. 0.47
